EC50 for assorted compounds
system: SNU-398; test: Induction of apoptosis in human SNU398 cells assessed as caspase activation after 24 hrs by HTS assay; format: functional, cell-based; conditions: SNU-398, 24 h
experimental_readout: EC50

compound="COc1cncc(C2C(C#N)=C(N)Oc3c2ccc2c3ccn2C)c1 (centres undefined)" val="3 nM"
compound="COc1cc(C2C(C#N)=C(N)Oc3c2ccc2cc[nH]c32)cc(Br)c1OC (centres undefined)" val="86 nM"
compound="COc1cc(OC)cc(C2C(C#N)=C(N)Oc3c2ccc2c3ccn2C)c1 (centres undefined)" val="3 nM"
compound=CC[C@]1(O)C[C@@H]2CN(CCc3c([nH]c4ccccc34)[C@@](C(=O)OC)(c3cc4c(cc3OC)N(C)[C@H]3[C@@](O)(C(=O)OC)[C@H](OC(C)=O)[C@]5(CC)C=CCN6CC[C@]43[C@@H]65)C2)C1 val="38 nM"
